# subjectOfTest: Recombinant human FAP (Homo sapiens)
# Construct: purchased R&D systems
# Sequence (Q12884 1-760): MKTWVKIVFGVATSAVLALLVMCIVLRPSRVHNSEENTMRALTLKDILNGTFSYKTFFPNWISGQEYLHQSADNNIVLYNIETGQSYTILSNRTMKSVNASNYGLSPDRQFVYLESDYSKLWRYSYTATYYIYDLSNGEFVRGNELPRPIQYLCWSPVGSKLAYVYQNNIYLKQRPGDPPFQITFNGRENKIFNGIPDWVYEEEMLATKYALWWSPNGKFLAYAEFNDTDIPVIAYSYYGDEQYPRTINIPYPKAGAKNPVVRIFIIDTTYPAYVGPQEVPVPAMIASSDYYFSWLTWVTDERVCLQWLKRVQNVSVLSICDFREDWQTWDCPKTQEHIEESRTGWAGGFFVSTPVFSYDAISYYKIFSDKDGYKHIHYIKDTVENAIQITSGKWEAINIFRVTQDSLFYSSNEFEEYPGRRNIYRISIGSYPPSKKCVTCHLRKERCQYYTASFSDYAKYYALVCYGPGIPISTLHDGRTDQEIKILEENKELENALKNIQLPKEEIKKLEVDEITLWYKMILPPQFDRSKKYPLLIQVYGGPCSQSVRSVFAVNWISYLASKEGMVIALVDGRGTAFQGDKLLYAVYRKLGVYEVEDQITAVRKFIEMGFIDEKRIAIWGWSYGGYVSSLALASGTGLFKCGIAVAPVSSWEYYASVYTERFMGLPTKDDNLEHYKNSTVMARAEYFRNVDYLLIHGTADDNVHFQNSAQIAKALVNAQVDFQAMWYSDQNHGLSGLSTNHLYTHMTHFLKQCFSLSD
# protocolSummary: FAP FRET assay, FGF21-sequence FRET peptide substrate
# Format: biochemical
# testContext: FRET peptide with human FGF21 sequence, 6 μM, 37° C.
What IC50 was measured for each of the following?
Give bare numbers, in nM.

Worked examples follow.
Cc1cnc2cccc(N(C)[C@H]3CCN(CC(=O)N4C[C@@H](F)C[C@H]4C#N)C3)c2c1 [Example 155] = 2.4
N#C[C@@H]1CCCN1C(=O)CN1CCC(Oc2ccc(Cl)c3ncccc23)CC1 [Example 431] = 12.2

For each listed entry, give its IC50.
1. N#C[C@@H]1C[C@H](F)CN1C(=O)CN1CC[C@H](Nc2ccc(NC(=O)c3ccccc3)c3ncccc23)C1 [Example 298]
2. N#C[C@@H]1CCCN1C(=O)CN1CCC(Oc2cccc3ncc(F)cc23)CC1 [Example 429]
3. N#C[C@@H]1C[C@H](F)CN1C(=O)CN1CCC(Oc2ccnc3cc(F)ccc23)CC1 [Example 433]
4. N#C[C@@H]1C[C@H](F)CN1C(=O)CN1CCC(Nc2cccc3ncc(C(=O)Nc4ccccc4)cc23)CC1 [Example 388]
5. N#C[C@@H]1C[C@H](F)CN1C(=O)CN1CC[C@@H](Nc2ccc3nc(Cl)ccc3c2)C1 [Example 207]
6. Cc1cc(OC2CCN(CC(=O)N3C[C@@H](F)C[C@H]3C#N)CC2)c2ccccc2n1 [Example 436]

1: 2.1; 2: 6.9; 3: 5.1; 4: 70.2; 5: 17.9; 6: 11.1

* * *

# subjectOfTest: DPP4 (Homo sapiens, UniProt P27487)
# Sequence (P27487 whole entry): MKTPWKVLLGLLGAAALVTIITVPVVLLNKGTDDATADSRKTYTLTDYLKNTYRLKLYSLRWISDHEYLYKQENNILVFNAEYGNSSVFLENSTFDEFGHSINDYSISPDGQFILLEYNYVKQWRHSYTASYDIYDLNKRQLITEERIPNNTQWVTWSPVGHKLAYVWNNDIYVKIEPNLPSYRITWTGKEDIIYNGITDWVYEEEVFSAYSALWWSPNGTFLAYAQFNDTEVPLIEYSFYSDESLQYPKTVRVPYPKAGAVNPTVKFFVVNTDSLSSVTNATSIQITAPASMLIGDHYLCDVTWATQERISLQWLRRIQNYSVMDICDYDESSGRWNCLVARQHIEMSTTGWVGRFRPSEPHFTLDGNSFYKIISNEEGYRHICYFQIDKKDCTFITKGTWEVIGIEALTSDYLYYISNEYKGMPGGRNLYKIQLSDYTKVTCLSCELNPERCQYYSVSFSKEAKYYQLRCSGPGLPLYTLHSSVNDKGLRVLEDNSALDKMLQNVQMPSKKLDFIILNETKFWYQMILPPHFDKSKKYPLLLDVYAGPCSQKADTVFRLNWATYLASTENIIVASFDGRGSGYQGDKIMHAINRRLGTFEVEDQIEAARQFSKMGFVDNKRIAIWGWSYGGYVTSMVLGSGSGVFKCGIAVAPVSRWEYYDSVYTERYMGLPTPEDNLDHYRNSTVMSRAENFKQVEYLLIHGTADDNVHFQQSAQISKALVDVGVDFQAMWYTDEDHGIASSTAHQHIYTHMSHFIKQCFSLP
# protocolSummary: DPP4 inhibition, fluorogenic substrate H-Gly-Pro-AMC
# Type: biochemical
# Set-up: purchased R&D Systems
# testContext: recombinant human DPP4
assayReadout: IC50 (µM)
Numbers only, in µM.

Worked examples follow.
N#C[C@@H]1C[C@H](F)CN1C(=O)CN1CCC(Nc2cccc3sccc23)CC1 = 7.39
N#C[C@@H]1CCCN1C(=O)CN1CCC(Nc2cc(=O)oc3ccccc23)CC1 = 24.5
N#C[C@@H]1C[C@H](F)CN1C(=O)CN1CC[C@H](Nc2ccc(O)c3ncccc23)C1 = 0.977
N#C[C@@H]1C[C@H](F)CN1C(=O)CN1CC[C@H](Nc2ccc3ncccc3c2)C1 = 0.964
N#C[C@@H]1C[C@H](F)CN1C(=O)CN1CC[C@@H](Nc2cc(Cl)c3ncccc3c2)C1 = 1.16

For each listed entry, give its IC50.
1. Cc1ccc(NC2CCN(CC(=O)N3C[C@@H](F)C[C@H]3C#N)CC2)c2cccnc12
2. N#C[C@@H]1C[C@H](F)CN1C(=O)CN1CC[C@H](Nc2cccc3ncc(F)cc23)C1
3. N#C[C@@H]1CCCN1C(=O)CN1CC[C@H](Nc2ccc(C(=O)Nc3cccnc3)c3ncccc23)C1

5.11
2.41
0.926

For each listed entry, give its IC50.
1. CN(c1ccc2ncccc2c1)C1CCN(CC(=O)N2C[C@@H](F)C[C@H]2C#N)CC1
2. N#C[C@@H]1CCCN1C(=O)CN1CC[C@H](Nc2ccc(C(=O)Nc3ccccc3)c3ncccc23)C1
3. N#C[C@@H]1C[C@H](F)CN1C(=O)CN1CCC(Nc2ccc(Cl)c3cnccc23)CC1
4. N#C[C@@H]1C[C@H](F)CN1C(=O)CN1CC[C@H](Nc2ccc(C(=O)Nc3cccnc3)c3ncccc23)C1

9.15
7.58
5.89
0.865

For each listed entry, give its IC50.
1. CN(C(=O)c1ccc(N[C@H]2CCN(CC(=O)N3C[C@@H](F)C[C@H]3C#N)C2)c2cccnc12)c1ccccc1
2. N#C[C@@H]1C[C@H](F)CN1C(=O)CN1CCC(Nc2ccc(F)c3cnccc23)CC1
3. N#C[C@@H]1CCCN1C(=O)CN1CCC(Nc2ccc(C(=O)Nc3ncccn3)c3ncccc23)CC1

1. 2.39
2. 4.71
3. 12.4
